Measured TL1A Binding Level (Late) accompanies every entry in the list below.
system: T1, human TL1A extracellular domain with N-terminal HIS and FLAG tag (human, UniProt O95150 72-251)
T1 construct: whole entry named. ~70 kDa fraction purified by gel filtration
T1 sequence: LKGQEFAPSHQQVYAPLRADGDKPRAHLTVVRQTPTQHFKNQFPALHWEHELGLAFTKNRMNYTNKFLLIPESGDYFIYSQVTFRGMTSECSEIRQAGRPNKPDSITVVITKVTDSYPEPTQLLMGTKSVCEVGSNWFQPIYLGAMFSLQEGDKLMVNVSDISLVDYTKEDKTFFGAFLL
procedure.text: SPR run 2; supernatant on Protein A; TL1A 10 ug/mL; timepoint 220
Provide only the numeric value, understood in RU.

[in] Return TL1A Binding Level (Late) for the following binder: 320-235 (antibody, human IgG1, name in Kabat numbering, V domains shown, human IgG1, lambda) VH: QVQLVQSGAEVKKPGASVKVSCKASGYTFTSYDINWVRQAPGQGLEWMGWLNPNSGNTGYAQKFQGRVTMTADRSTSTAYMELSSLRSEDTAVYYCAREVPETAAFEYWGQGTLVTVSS VL: QSVLTQPPSVSGAPGQRVTISCTSSSSQIGAGLGVHWYQQLPGTAPKLLIEGYYNRPSGVPDRFSGSKSGTSASLTITGLLPEDEGDYYCQSYDGTLSALFGGGTKLTVLG
[out] 236

[in] Return TL1A Binding Level (Late) for the following binder: 320-245 (antibody, human IgG1, name in Kabat numbering, V domains shown, human IgG1, lambda) VH: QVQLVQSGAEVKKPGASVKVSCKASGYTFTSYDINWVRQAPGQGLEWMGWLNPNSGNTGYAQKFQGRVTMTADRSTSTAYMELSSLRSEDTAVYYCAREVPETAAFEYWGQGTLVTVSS VL: QSVLTQPPSVSGAPGQRVTISCTSSSSDHGAGLGVHWYQQLPGTAPKLLIEGYYNRPSGVPDRFSGSKSGTSASLTITGLLPEDEGDYYCQSYDGTLSALFGGGTKLTVLG
[out] 26

[in] Return TL1A Binding Level (Late) for the following binder: 320-208 (antibody, human IgG1, name in Kabat numbering, V domains shown, human IgG1, lambda) VH: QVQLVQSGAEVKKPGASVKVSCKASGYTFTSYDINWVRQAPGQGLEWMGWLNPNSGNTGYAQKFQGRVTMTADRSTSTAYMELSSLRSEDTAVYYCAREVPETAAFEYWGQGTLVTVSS VL: QSVLTQPPSVSGAPGQRVTISCTYSSSDIGAGLGVHWYQQLPGTAPKLLIEGYYNRPSGVPDRFSGSKSGTSASLTITGLLPEDEGDYYCQSYDGTLSALFGGGTKLTVLG
[out] 199
